For each record, write down the corresponding ΔTm.
target: rat VMAT2-His (Rattus norvegicus, UniProt Q01827); construct: The ORF of rat VMAT2 was subcloned into a pFastBac vector; His; made in house; host or cells: Sf9 insect cells (baculovirus); assay: Differential scanning fluorimetry (DSF) with CPM dye: change of melting temperature of purified VMAT2; type: binding; details: 11 µM
Sequence (Q01827 whole entry): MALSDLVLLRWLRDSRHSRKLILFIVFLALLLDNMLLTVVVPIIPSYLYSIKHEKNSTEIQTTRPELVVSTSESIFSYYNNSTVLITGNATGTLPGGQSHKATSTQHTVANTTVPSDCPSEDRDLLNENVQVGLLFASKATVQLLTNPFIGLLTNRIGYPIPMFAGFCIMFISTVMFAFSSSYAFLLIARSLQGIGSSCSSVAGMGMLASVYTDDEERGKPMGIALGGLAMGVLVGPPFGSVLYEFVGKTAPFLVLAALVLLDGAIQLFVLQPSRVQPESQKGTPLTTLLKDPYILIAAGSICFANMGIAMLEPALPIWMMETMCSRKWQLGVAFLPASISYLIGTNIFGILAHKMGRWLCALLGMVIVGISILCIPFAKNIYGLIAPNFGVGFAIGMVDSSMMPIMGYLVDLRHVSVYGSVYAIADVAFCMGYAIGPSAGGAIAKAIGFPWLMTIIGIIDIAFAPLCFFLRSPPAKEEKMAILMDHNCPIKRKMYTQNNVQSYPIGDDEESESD
Counter-ions that a name gives are not always drawn.

// returns reported ΔTm for input CC(C)NCC(O)c1ccc2ccccc2c1 (stereo not shown) [Pronethalol, Pronethalol hydrochloride]
0,70 oC

// returns reported ΔTm for input Cl.Cl.OCCN1CCN(CC/C=C2/c3ccccc3Sc3ccc(Cl)cc32)CC1 [Zuclopenthixol dihydrochloride]
-0,58 oC

// returns reported ΔTm for input CC(C(O)c1ccc(O)cc1)N1CCC(Cc2ccccc2)CC1.CC(C(O)c1ccc(O)cc1)N1CCC(Cc2ccccc2)CC1.O=C(O)C(O)C(O)C(=O)O (stereo not shown) [Ifenprodil tartrate]
-0,20 oC

// returns reported ΔTm for input CCSc1ccc2c(c1)N(CCCN1CCN(C)CC1)c1ccccc1S2.O=C(O)CC(O)C(=O)O.O=C(O)CC(O)C(=O)O [Thiethylperazine dimalate]
-0,77 oC

* * *

target: rat VMAT2-His (Rattus norvegicus, UniProt Q01827); construct: The ORF of rat VMAT2 was subcloned into a pFastBac vector; His; made in house; host or cells: Sf9 insect cells (baculovirus); experiment: Differential scanning fluorimetry (DSF) with CPM dye: change of melting temperature of purified VMAT2; assay type: binding; conditions: Table S2 dose response, compound 0,12 µM; read-out: ΔTm
Counter-ions that a name gives are not always drawn.
measured_property: ΔTm at 12 µM (°C)
Express it in °C; write the number only.

// returns reported ΔTm at 12 µM for input C[C@H](CCC(=O)O)[C@H]1CC[C@H]2[C@@H]3[C@H](O)C[C@@H]4C[C@H](O)CC[C@]4(C)[C@H]3CC[C@]12C [Chenodiol]
-0.11

// returns reported ΔTm at 12 µM for input CC(C)n1c(/C=C/C(O)CC(O)CC(=O)O)c(-c2ccc(F)cc2)c2ccccc21 (stereo not shown) [Fluvastatin, Fluvastatin sodium salt]
0.62

// returns reported ΔTm at 12 µM for input COc1ccc2[nH]c([S+]([O-])Cc3ncc(C)c(OC)c3C)nc2n1 (stereo not shown) [Tenatoprazole]
0.38

// returns reported ΔTm at 12 µM for input Fc1ccc(C(OCCN2CCN(CCCc3ccccc3)CC2)c2ccc(F)cc2)cc1 [GBR 12909 dihydrochloride]
-0.02

// returns reported ΔTm at 12 µM for input CC(C)COCC(CN(Cc1ccccc1)c1ccccc1)N1CCCC1 (stereo not shown) [Bepridil hydrochloride]
-0.78

// returns reported ΔTm at 12 µM for input COc1cc2c(cc1OC)C1CC(=O)C(CC(C)C)CN1CC2 (stereo not shown) [Tetrabenazine]
4.89

// returns reported ΔTm at 12 µM for input CC(C)(C)NC(=O)[C@@H]1C[C@@H]2CCCC[C@@H]2CN1C[C@@H](O)[C@H](Cc1ccccc1)NC(=O)[C@H](CC(N)=O)NC(=O)c1ccc2ccccc2n1 [Saquinavir mesylate]
-0.17

* * *

biological target: rat VMAT2-His (Rattus norvegicus); construct: The ORF of rat VMAT2 was subcloned into a pFastBac vector; His; made in house; host or cells: Sf9 insect cells (baculovirus); experiment: Differential scanning fluorimetry (DSF) with CPM dye: change of melting temperature of purified VMAT2; type: binding; settings: Table S2 dose response, compound 30 µM
For each record, write down the corresponding ΔTm.

// returns reported ΔTm for input Cl.Cl.OCCN1CCN(CC/C=C2/c3ccccc3Sc3ccc(Cl)cc32)CC1 [Zuclopenthixol dihydrochloride]
-1,80 oC

// returns reported ΔTm for input CCSc1ccc2c(c1)N(CCCN1CCN(C)CC1)c1ccccc1S2.O=C(O)CC(O)C(=O)O.O=C(O)CC(O)C(=O)O [Thiethylperazine dimalate]
-1,34 oC

// returns reported ΔTm for input CC(C(O)c1ccc(O)cc1)N1CCC(Cc2ccccc2)CC1.CC(C(O)c1ccc(O)cc1)N1CCC(Cc2ccccc2)CC1.O=C(O)C(O)C(O)C(=O)O (stereo not shown) [Ifenprodil tartrate]
0,06 oC

// returns reported ΔTm for input CCCCCCC[N+](CC)(CC)CCCCc1ccc(Cl)cc1.Cc1ccc(S(=O)(=O)[O-])cc1 [Clofilium tosylate]
-0,15 oC
